- EXPERIMENTAL TARGET: recombinant EphB4 (Homo sapiens, UniProt P54760)
- Construct: amino acids 563-987; Swiss-Prot Acc; No. P54760
- Sequence (P54760 563-987): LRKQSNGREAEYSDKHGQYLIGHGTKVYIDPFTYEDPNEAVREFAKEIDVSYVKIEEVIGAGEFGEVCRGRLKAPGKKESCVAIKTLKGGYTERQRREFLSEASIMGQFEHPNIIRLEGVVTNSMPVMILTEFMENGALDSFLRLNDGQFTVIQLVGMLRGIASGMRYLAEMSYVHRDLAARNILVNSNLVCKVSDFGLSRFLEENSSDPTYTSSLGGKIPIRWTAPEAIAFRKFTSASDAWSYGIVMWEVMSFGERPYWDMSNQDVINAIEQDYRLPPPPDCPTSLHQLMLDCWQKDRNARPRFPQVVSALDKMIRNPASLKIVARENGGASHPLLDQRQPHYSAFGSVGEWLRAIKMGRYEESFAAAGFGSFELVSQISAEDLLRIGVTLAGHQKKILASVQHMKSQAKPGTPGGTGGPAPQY
- ASSAY METHOD TEXT: In vitro EphB4 enzyme assay (Alphascreen)
- Experimental: This assay detects inhibitors of EphB4-mediated phosphorylation of a polypeptide substrate using Alphascreen™ luminescence detection technology. […] The signal intensity is directly proportional to the level of substrate phosphorylation and thus inhibition is measured by a decrease in signal. […] The resulting assay signal was determined on the Perkin Elmer EnVision plate reader. […]
For each entry below, report its pIC50 value.
Answers are plain numbers, as −log10 of the molar value.

COc1ccc(N(C)c2ccnc(Nc3cc(N4CCOCC4)cc(N4CCOCC4)c3)n2)cc1Cl 6.30
CN(c1cccc(Cl)c1)c1ccnc(Nc2cc(N3CCOCC3)cc(N3CCC(O)CC3)c2)n1 8.77

Alright, here's another molecule for you.
Consider CN(c1ccc(F)c(F)c1)c1ccnc(Nc2cc(N3CCOCC3)cc(N3CCOCC3)c2)n1 . Its measured pIC50 is 6.15
